Task for the reader: assign each of the following compounds its reported inhibition.
- ASSAY PROCEDURE: Shh-driven Gli reporter inhibition – luminescence, Shh-LIGHT2 cells, Gli-luciferase, primary screen (AID 2313);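 also: pathway switched on by Shh-conditioned medium diluted 1 in 25 in low serum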
- MEASUREMENT PARAMETERS: 30 h, stronger effect = higher value
About 460 (2.1%) of roughly 22,000 compounds were called active. Inconclusive results (about 2%) are left out. The full list was thinned out, with actives kept by preference.
Answers are plain numbers, in %.

Example results:
Reported inhibition of `C[C@H]1CN([C@@H](C)CO)C(=O)c2cc(NC(=O)Cc3cn(C)c4ccccc34)ccc2O[C@@H]1CN(C)Cc1ccc(Cl)c(Cl)c1` : 15.9

Reported inhibition of `Cc1ccc(OCc2n[nH]c(=S)n2C2CCCCC2)c2c1CCC2` : 9.84

List inhibition for every entry below, keeping the order given.
1. CC(C)NC(=O)Nc1ccc2c(c1)C(=O)N([C@@H](C)CO)C[C@@H](C)[C@H](CN(C)Cc1ccc(C(=O)O)cc1)O2
2. Cc1noc(C)c1NC(=O)Nc1ccc2c(c1)C(=O)N([C@H](C)CO)C[C@@H](C)[C@@H](CN(C)C(=O)NC(C)C)O2

Given back:
[-19.8, -44]

* * *

- ASSAY PROCEDURE: Shh-driven Gli reporter inhibition – luminescence, Shh-LIGHT2 cells, Gli-luciferase, primary screen (AID 2313);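 also: pathway switched on by Shh-conditioned medium diluted 1 in 25 in low serum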
- MEASUREMENT PARAMETERS: 30 h, stronger effect = higher value
The campaign covered roughly 22,000 compounds. About 460 (2.1%) were called active. Inconclusive results (about 2%) are left out. The full list was thinned out, with actives kept by preference.
Task for the reader: assign each of the following compounds its reported inhibition.
Give bare numbers, in %.

Reported inhibition of `O=C(Oc1cccc(C(F)(F)F)c1)c1cc2ccc3ccccc3c2s1` : -31.9

Reported inhibition of CC1(C)CC[C@]2(C(=O)O)CC[C@]3(C)C(=CCC4[C@@]5(C)CC[C@H](OC6O[C@H](CO)[C@@H](O)[C@H](O[C@@H]7O[C@H](CO)[C@@H](O)[C@H](O)[C@H]7O)[C@H]6O)C(C)(C)C5CC[C@]43C)[C@@H]2C1 (stereo partly specified) : 107

Reported inhibition of `CC(C)NC(=O)N(C)C[C@@H]1Oc2c(NC(=O)c3cnccn3)cccc2C(=O)N([C@@H](C)CO)C[C@@H]1C` : 2.03

Reported inhibition of `C[C@@H]1CN([C@H](C)CO)C(=O)Cc2cc(N(C)C)ccc2O[C@H]1CN(C)S(C)(=O)=O` : -5.86

Reported inhibition of `C[C@@H]1CN([C@H](C)CO)C(=O)Cc2cc(NC(=O)Nc3ccccc3)ccc2O[C@H]1CN(C)Cc1ccc(Cl)c(Cl)c1` : -42

Reported inhibition of `COC(=O)C1=CO[C@@H](O[C@@H]2O[C@H](CO)[C@@H](O)[C@H](O)[C@H]2O)[C@@H]2[C@@](C)(O)[C@@H](OC(=O)/C=C/c3ccc(OC)c(OC)c3)C[C@]12O` : 3.81

Reported inhibition of `CC(C)NC(=O)N(C)C[C@@H]1Oc2ccc(N(C)C)cc2C(=O)N([C@@H](C)CO)C[C@H]1C` : -15.2

Reported inhibition of `COc1ccc(CN(C)C[C@H]2Oc3c(NC(=O)C4CC4)cccc3C(=O)N([C@@H](C)CO)C[C@H]2C)cc1` : -3.41

Reported inhibition of C/C=C(/C)C(=O)O[C@H]1CC(C)(C)C[C@H]2C3=CCC4[C@@]5(C)CC[C@H](O[C@@H]6O[C@H](C(=O)O)[C@@H](O[C@@H]7O[C@H](CO)[C@H](O)[C@H](O)[C@H]7O[C@@H]7O[C@H](CO)[C@@H](O)[C@H](O)[C@H]7O)[C@H](O)[C@H]6O[C@@H]6O[C@@H](C)[C@H](O)[C@@H](O)[C@H]6O)C(C)(C)C5CC[C@@]4(C)[C@]3(C)[C@@H](O)[C@@H](O)[C@@]12CO (stereo partly specified) : 99.7

Reported inhibition of CCC/C=C/C(=O)OC1C(O)C23C(O)OC4(CCC5C6(C)CCC(OC7OC(C(=O)O)C(O)C(OC8OC(CO)C(O)C(O)C8OC8OC(C)C(O)C(O)C8OC8OCC(O)C(O)C8O)C7OC7OC(CO)C(O)C(O)C7O)C(C)(C)C6CCC5(C)C4(C)CC2OC(C)=O)C3CC1(C)C (stereo unspecified) : 104

Proceed to the following item.
Reported inhibition of `CC(C)NC(=O)Nc1ccc2c(c1)C(=O)N([C@H](C)CO)C[C@H](C)[C@@H](CN(C)CC1CCCCC1)OCCCC[C@@H](C)O2` : -21.5

The reported measurements were obtained from PubChem BioAssay AID2313.
